Assay: amyloid nucleation score (Sup35N fusion, yeast selection) (log enrichment); library NNK1; higher = more nucleation; inactive = no reads after selection;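 note: zero at mode of non-aggregating sequences after 7 days selection at 30°C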
Hi all, reminder that labels come from amyloid nucleation score, split as LOW (below -0.1), MID (-0.1 to below 0.7), HIGH (0.7 or more)

Exercise: Into which category would you place YFLLACLNVS ?
Key: HIGH

Exercise: Likewise for CRNVRQSCGYIYYCSRKHLA ?
Key: MID

Exercise: Likewise for WGWHNYWDGSVVVWRSATAH ?
Key: LOW

Exercise: Likewise for CRLKSMMVRNSWSVCSSGWG ?
Key: MID

Exercise: Likewise for PTIKRGTVGFNWVGRACSGK ?
Key: LOW

Exercise: Likewise for FCGAVVFNVVWCYWNKIAVL ?
Key: HIGH

Exercise: Likewise for SIRCLIREKA ?
Key: LOW

Exercise: Likewise for TLFLVWILGVTKSRITGTPS ?
Key: MID

Exercise: Likewise for SCLWSSCCVV ?
Key: MID

Exercise: Likewise for YYISLFTEDMSVRRVNQTCF ?
Key: LOW

Exercise: Likewise for GLRQYF ?
Key: LOW

Exercise: Likewise for EACNNQNFCRTSNGESSTTV ?
Key: MID

Exercise: Likewise for NYFAIPCFESWSWRMYKVGF ?
Key: MID

Exercise: Likewise for RILYSSSSAFIGIYSLFVII ?
Key: MID

Exercise: Likewise for WHRRLGNMFKIASRTELRMG ?
Key: LOW

Exercise: Likewise for SWATWLDMNG ?
Key: HIGH

Exercise: Likewise for FWVFAITFTAERKLQADDLF ?
Key: HIGH

Exercise: Likewise for MKQQAQPVFVWSSAGGGCES ?
Key: LOW

Exercise: Likewise for LIWWFEGRPRVSGGFSVFDV ?
Key: LOW

Exercise: Likewise for EQRKRDHSRASSVSLKRYMG ?
Key: MID

Exercise: Likewise for RHPSWLYDVFNIVLVITACW ?
Key: MID

Exercise: Likewise for LRRGMQHAFADSENFVGSHV ?
Key: LOW

Exercise: Likewise for NSSHLLVMCDICYNFKVRTL ?
Key: LOW

Exercise: Likewise for SGPGDKVAISMNIY ?
Key: HIGH

Exercise: Likewise for NVTNQCMLW ?
Key: MID

Exercise: Likewise for SLVVEMVNYE ?
Key: MID

Exercise: Likewise for WSKHLAYIVYDVQ ?
Key: LOW

Exercise: Likewise for SSRLKL ?
Key: HIGH

Exercise: Likewise for PLVCRGLLSRCGNPSGKCGR ?
Key: LOW

Exercise: Likewise for AYNAECSVWSRRCSIAVMDL ?
Key: HIGH

Exercise: Likewise for SFTNDSSRSWRHTRLGSCCE ?
Key: HIGH

Exercise: Likewise for RTMCRFPYGCMTRSYVSG ?
Key: MID

Exercise: Likewise for KGANADAYGRGYNAVFMLEW ?
Key: LOW

Exercise: Likewise for RAAALRRKRDD ?
Key: MID

Exercise: Likewise for FLWIYLSNTVLG ?
Key: LOW

Exercise: Likewise for FSPRIALVFRKYQGMASQPP ?
Key: HIGH

Exercise: Likewise for VWYFISTYCWDRPKVILSGV ?
Key: LOW

Exercise: Likewise for MMAIIFMCNV ?
Key: HIGH

Exercise: Likewise for RQFIELKCLFPMADVIVF ?
Key: MID

Exercise: Likewise for HIFWYCHMFPVVMASIIINS ?
Key: MID

Exercise: Likewise for FNKQFCK ?
Key: HIGH

Exercise: Likewise for TFFVVCKSTLILYEI ?
Key: LOW

Exercise: Likewise for GKYMFPCCMTAITQKLRPRR ?
Key: LOW

Exercise: Likewise for SKYRLNAMWSACRQRWANIG ?
Key: LOW

Exercise: Likewise for LTVIVFIMEATIDYYGGRCG ?
Key: HIGH

Exercise: Likewise for LMGECGLSFLTPY ?
Key: MID

Exercise: Likewise for NHGWVLNSNFYIPRKYSLVR ?
Key: LOW

Exercise: Likewise for VRAELVTVGCLRRATYYRPK ?
Key: LOW

Exercise: Likewise for MRSKREMSFMTHEILVCNDA ?
Key: MID

Exercise: Likewise for SRYSLTCRVLTWLPDNLVRR ?
Key: MID

Exercise: Likewise for FCPDICTWKNWSMWMQLEDL ?
Key: HIGH

Exercise: Likewise for SCVLESIQEFWS ?
Key: LOW

Exercise: Likewise for SMGLYRDLRLKCFC ?
Key: HIGH

Exercise: Likewise for CLATLSMSYLLFVSGLRRIK ?
Key: LOW

Exercise: Likewise for VNLRKEPDNRGLGLDFRLN ?
Key: MID

Exercise: Likewise for TTCCINSLMCTDTNSCIAGV ?
Key: HIGH

Exercise: Likewise for VRNMVFSSGRQLYMWDKLLK ?
Key: HIGH

Exercise: Likewise for IIGLVWSVL ?
Key: HIGH

Exercise: Likewise for VDSSRRDVCDGDT ?
Key: MID

Exercise: Likewise for MENAGTSVIPRRYIWTPKPV ?
Key: HIGH
